Reported values of pIC50 for individual entries
Target: Mitogen-activated protein kinase 14 (Homo sapiens)
Sequence (Q16539 whole entry): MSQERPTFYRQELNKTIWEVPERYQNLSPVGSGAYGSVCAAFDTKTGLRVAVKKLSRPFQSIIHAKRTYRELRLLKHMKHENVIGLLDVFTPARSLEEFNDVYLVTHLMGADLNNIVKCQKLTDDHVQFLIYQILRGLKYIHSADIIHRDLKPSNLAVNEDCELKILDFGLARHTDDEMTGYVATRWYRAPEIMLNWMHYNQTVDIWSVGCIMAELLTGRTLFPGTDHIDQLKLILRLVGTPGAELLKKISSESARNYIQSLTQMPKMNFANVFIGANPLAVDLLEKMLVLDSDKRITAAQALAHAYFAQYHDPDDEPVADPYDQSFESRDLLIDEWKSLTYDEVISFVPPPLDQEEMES
Experiment: Inhibition of human p38-alpha kinase
pIC50: −log10 of the molar value.
metric: pIC50

query_smiles=Cc1ccc(-n2nc(C(C)(C)C)cc2NC(=O)/C(=N\O)c2ccc(OCCN3CCOCC3)c3ccccc23)cc1 observed_result=7.64
query_smiles=Cn1nc(C(C)(C)C)cc1NC(=O)C(=O)c1ccc(OCCN2CCOCC2)c2ccccc12 observed_result=6.82
query_smiles=Cc1ccc(-n2nc(C(C)(C)C)cc2NC(=O)C(=O)c2ccc(OCCN3CCOCC3)c3ccccc23)cc1 observed_result=6.49

* * *

Experiment: Volume of distribution at steady state in rat at 10 mg/kg, iv
Format: ADME, organism-based
Parameters: dose 10 mg/kg, route intravenous
Conditions: in vivo, read-out: Vdss
metric: Vd (L/kg)

query_smiles=Cc1ccc(-n2nc(C(C)(C)C)cc2NC(=O)/C(=N\O)c2ccc(OCCN3CCOCC3)c3ccccc23)cc1 observed_result=1.9

* * *

Experiment: Tmax in rat at 30 mg/kg, po
Format: ADME, organism-based
Design: dose 30 mg/kg, route oral
Conditions: in vivo
metric: Tmax

query_smiles=Cc1ccc(-n2nc(C(C)(C)C)cc2NC(=O)/C(=N\O)c2ccc(OCCN3CCOCC3)c3ccccc23)cc1 observed_result="1 h"

* * *

Target: Mitogen-activated protein kinase 14 (Homo sapiens)
Experiment: Inhibition of human p38-alpha kinase phosphorylation
pIC50: −log10 of the molar value.
metric: pIC50

query_smiles=Cc1ccc(-n2nc(C(C)(C)C)cc2NC(=O)/C(=N\O)c2ccc(OCCN3CCOCC3)c3ccccc23)cc1 metric=pIC50 observed_result=6.82
query_smiles=Cc1ccc(-n2nc(C(C)(C)C)cc2NC(=O)C(=O)c2ccc(OCCN3CCOCC3)c3ccccc23)cc1 metric=pIC50 observed_result=6.51
query_smiles=Cn1nc(C(C)(C)C)cc1NC(=O)C(=O)c1ccc(OCCN2CCOCC2)c2ccccc12 metric=pIC50 observed_result=6.52

* * *

Test: Bioavailability in rat at 30 mg/kg, po
Type: ADME, organism-based
Conditions: in vivo
metric: bioavailability (%)

query_smiles=Cc1ccc(-n2nc(C(C)(C)C)cc2NC(=O)/C(=N\O)c2ccc(OCCN3CCOCC3)c3ccccc23)cc1 observed_result=100

* * *

Experiment: Cmax in rat at 30 mg/kg, po
Format: ADME, organism-based
Design: dose 30 mg/kg, route oral
Settings: in vivo
metric: Cmax

query_smiles=Cc1ccc(-n2nc(C(C)(C)C)cc2NC(=O)/C(=N\O)c2ccc(OCCN3CCOCC3)c3ccccc23)cc1 observed_result="4500 ng/mL"

* * *

Test: AUC in rat at 30 mg/kg, po
Format: ADME, organism-based
Parameters: dose 30 mg/kg, route oral
Conditions: plasma
metric: AUC (ng·h/mL)

query_smiles=Cc1ccc(-n2nc(C(C)(C)C)cc2NC(=O)/C(=N\O)c2ccc(OCCN3CCOCC3)c3ccccc23)cc1 metric=AUC observed_result=36000

Provenance of the data: ChEMBL document CHEMBL1143878
